# inhibition at 1 µM per entry
# ASSAY_TARGET: Rat TRPA1 expressing CHO cells (Rattus norvegicus)
# Construct: expressed in transfected cells; host or cells: CHO cells (Zeocin selection)
# Sequence (Q6RI86 whole entry): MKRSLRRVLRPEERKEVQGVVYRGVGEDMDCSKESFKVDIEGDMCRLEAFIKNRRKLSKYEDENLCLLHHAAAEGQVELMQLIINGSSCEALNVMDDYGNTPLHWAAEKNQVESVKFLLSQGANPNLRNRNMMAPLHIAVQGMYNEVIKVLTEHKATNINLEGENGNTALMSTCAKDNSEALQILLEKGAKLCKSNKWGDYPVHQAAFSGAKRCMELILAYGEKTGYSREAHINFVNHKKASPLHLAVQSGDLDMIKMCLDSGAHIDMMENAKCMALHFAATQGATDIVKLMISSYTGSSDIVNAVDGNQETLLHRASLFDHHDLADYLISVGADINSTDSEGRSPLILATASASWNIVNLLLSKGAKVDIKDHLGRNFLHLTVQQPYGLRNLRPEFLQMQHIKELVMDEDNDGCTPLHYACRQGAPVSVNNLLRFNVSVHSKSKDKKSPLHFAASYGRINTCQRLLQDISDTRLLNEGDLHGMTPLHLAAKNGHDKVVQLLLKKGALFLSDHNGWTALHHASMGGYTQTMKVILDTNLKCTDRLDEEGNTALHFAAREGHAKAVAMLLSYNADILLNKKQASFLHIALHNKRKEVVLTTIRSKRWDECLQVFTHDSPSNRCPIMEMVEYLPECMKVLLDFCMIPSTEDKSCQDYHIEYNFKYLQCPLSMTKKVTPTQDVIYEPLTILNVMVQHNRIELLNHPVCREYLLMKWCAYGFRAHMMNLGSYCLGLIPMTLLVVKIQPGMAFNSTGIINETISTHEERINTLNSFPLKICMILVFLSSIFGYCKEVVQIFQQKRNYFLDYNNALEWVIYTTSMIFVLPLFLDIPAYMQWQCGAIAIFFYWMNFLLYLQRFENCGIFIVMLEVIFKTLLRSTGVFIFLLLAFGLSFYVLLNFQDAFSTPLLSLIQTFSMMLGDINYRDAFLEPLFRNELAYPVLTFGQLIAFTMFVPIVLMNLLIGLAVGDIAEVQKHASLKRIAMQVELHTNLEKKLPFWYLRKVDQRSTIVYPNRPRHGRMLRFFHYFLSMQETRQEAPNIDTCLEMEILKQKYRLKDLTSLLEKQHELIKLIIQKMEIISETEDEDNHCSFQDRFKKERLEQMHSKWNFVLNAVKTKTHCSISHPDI
# TEST_SUMMARY: 45Calcium uptake assay, inhibition of AITC induced calcium uptake (rat)
# Assay type: cell-based
# ASSAY_CONDITIONS: rat TRPA1 CHO cells, AITC 10 μM, compound 1.0 μM; read-out: Percentage inhibition at 1.0 μM
Just the number in %, nothing appended.

# lookup: inhibition at 1 µM of Cn1c(=O)c2c(CC(=O)Nc3nc(-c4ccc(OC(F)(F)F)c(F)c4)cs3)scc2n(C)c1=O [Example 52]
92.3

Try Cc1sc2c(c1CC(=O)Nc1nc(-c3ccc(F)c(C(F)(F)F)c3F)cs1)c(=O)n(C)c(=O)n2C [Example 27] next.
97.9

Try Cn1c(=O)c2c(CC(=O)Nc3nc(-c4ccc(Cl)cc4)cs3)csc2n(C)c1=O [Example 2] next.
91.4

Try CCc1sc2c(c1CC(=O)Nc1nc(-c3cc(F)c(OC(F)F)c(F)c3)cs1)c(=O)n(C)c(=O)n2C [Example 33] next.
96.5

Try Cn1c(=O)c2c(CC(=O)Nc3nc(-c4cccc(OC(F)(F)F)c4)cs3)scc2n(C)c1=O [Example 48] next.
92.5

Try Cn1c(=O)c2c(CC(=O)Nc3nc(-c4ccc(F)c(C(F)(F)F)c4)cs3)csc2n(C)c1=O [Example 6] next.
99.7

Try Cn1c(=O)c2c(CC(=O)Nc3nc(-c4cc(F)c(C(F)(F)F)c(F)c4)cs3)csc2n(C)c1=O [Example 16] next.
38.7
